# TEST_TARGET: Rat liver microsomal squalene synthase (Rattus norvegicus, UniProt Q02769)
# Construct: Rat liver microsomes, the source of enzyme, were prepared; from tissue; host or cells: rat liver microsomes
# Sequence (Q02769 1-416): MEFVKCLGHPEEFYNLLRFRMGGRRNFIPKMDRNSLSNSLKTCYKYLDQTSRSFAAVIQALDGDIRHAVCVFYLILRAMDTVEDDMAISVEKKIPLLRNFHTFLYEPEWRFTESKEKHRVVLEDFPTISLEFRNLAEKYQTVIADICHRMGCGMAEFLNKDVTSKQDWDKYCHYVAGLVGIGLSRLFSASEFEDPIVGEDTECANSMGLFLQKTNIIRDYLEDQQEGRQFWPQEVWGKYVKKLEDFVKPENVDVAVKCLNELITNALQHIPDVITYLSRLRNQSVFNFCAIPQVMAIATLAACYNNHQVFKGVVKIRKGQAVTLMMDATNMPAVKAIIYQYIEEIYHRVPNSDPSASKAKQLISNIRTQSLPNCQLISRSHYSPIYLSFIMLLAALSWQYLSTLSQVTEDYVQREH
# PROCEDURE_DETAILS: In vitro Inhibition of Squalene Synthase (rat liver microsomal, radioactive farnesyl diphosphate substrate)
# Type: biochemical
# TEST_SETTINGS: rat liver microsomes
EXPERIMENTAL_ENDPOINT: inhibition at 1 µM (%)

Guide cases for inhibition at 1 µM, answers given:
                                   molecule  experimental_endpoint  units_symbol  reported
0  CCCN(CCCC=CC(C)CCCc1ccccc1)C(=O)C1C(C(=O)O)C(C(=O)O)C1C(=O)O (stereo not drawn) [Example 44]     inhibition at 1 µM             %        25
1  CC(NC(=O)[C@H]1C[C@H](C(=O)O)[C@H]1C(=O)O)C(Cc1ccc(Cl)cc1)c1ccc(-c2ccccc2)cc1 (relative stereo) [Example 34]     inhibition at 1 µM             %        94
2  COC(=O)[C@H]1[C@@H](C(=O)O)[C@H](C(=O)O)[C@@H]1C(=O)N[C@@H](C)[C@@H](Cc1ccc(Cl)c(Cl)c1)OC(=O)c1ccc2ccccc2c1 [Example 24]     inhibition at 1 µM             %        27
3  O=C(O)[C@H]1[C@H](C(=O)O)[C@H](C(=O)O)[C@H]1C(=O)N(CCCCCCCCCCc1ccccc1)Cc1ccccc1 (relative stereo) [Example 35]     inhibition at 1 µM             %        47

P: C[C@H](NC(=O)[C@H]1[C@@H](C(=O)O)[C@H](C(=O)O)[C@@H]1C(=O)O)[C@@H](Cc1ccc(Cl)c(Cl)c1)OC(=O)c1ccc2ccccc2c1 [Example 26]
Q: C[C@H](NC(=O)C1CCC1C(=O)O)[C@H](Cc1ccc(Cl)cc1)c1ccc(-c2ccccc2)cc1 (stereo partly drawn) [Example 37]
Q. Dear colleague, could you let me know whether P or Q has the lower recorded inhibition at 1 µM? Thanks. Mark your answer with the label of the selected entry.
A. P
(P: 52%, Q: 90%)

----------
# TEST_TARGET: Rat brain protein farnesyltransferase (Rattus norvegicus, UniProt Q02293+Q04631)
# Construct: Rat brain protein farnesyltransferase activity was measured; from tissue; host or cells: rat brain; partially purified by steps one through three of Reiss et al., Cell 62:81-88 (1990)
# PROCEDURE_DETAILS: In vitro Inhibition of Protein Farnesyltransferase (scintillation proximity assay, biotin-K Ras B fragment)
# Format: biochemical
# TEST_SETTINGS: rat brain enzyme
EXPERIMENTAL_ENDPOINT: inhibition at 1 µM (%)

COMPOUND	inhibition at 1 µM [%]
O=C(O)[C@@H]1[C@H](C(=O)O)[C@@H](C(=O)O)[C@H]1C(=O)N(Cc1ccc(Oc2ccccc2)cc1)Cc1cccs1 (relative stereo) [Example 6]	89
O=C(O)[C@@H]1[C@H](C(=O)O)[C@@H](C(=O)O)[C@H]1C(=O)N(Cc1ccccc1)Cc1ccc(Oc2ccccc2)cc1 (relative stereo) [Example 4]	99
O=C(OCc1ccccc1)[C@@H]1[C@H](C(=O)O)[C@@H](C(=O)OCc2ccccc2)[C@H]1C(=O)N(Cc1ccccc1)Cc1ccc(Oc2ccccc2)cc1 (relative stereo) [Example 3]	45
CC(Cc1ccccc1)C(O)CCCN(Cc1ccccc1)C(=O)C1C(C(=O)O)C(C(=O)O)C1C(=O)O (stereo not drawn) [Example 1]	92

P: COC(=O)[C@H]1[C@@H](C(=O)O)[C@H](C(=O)N(Cc2ccccc2)Cc2ccc(Oc3ccccc3)cc2)[C@@H]1C(=O)O (relative stereo) [Example 8]
Q: O=C(OCc1ccccc1)[C@@H]1[C@H](C(=O)O)[C@@H](C(=O)OCc2ccccc2)[C@H]1C(=O)N(Cc1ccc(Oc2ccccc2)cc1)Cc1cccs1 (relative stereo) [Example 5]
Q. // max by inhibition at 1 µM over [ P , Q ] Mark your answer with the label of the selected entry.
A. P
(P: 79%, Q: 21%)

----------
# TEST_TARGET: Rat liver microsomal squalene synthase (Rattus norvegicus)
# Construct: Rat liver microsomes, the source of enzyme, were prepared; from tissue; host or cells: rat liver microsomes
# PROCEDURE_DETAILS: In vitro Inhibition of Squalene Synthase (rat liver microsomal, radioactive farnesyl diphosphate substrate)
# Assay type: biochemical
# TEST_SETTINGS: rat liver microsomes
EXPERIMENTAL_ENDPOINT: inhibition at 1 µM (%)

Guide cases for inhibition at 1 µM, answers given:
                                   compound  experimental_endpoint  reported
0  COC(=O)[C@@H]1[C@H](C(=O)O)[C@@H](C(=O)O)[C@H]1C(=O)N[C@@H](C)[C@@H](Cc1ccc(Cl)c(Cl)c1)OC(=O)c1ccc2ccccc2c1     inhibition at 1 µM        98
1  O=C(O)[C@H]1[C@H](C(=O)O)[C@H](C(=O)O)[C@H]1C(=O)N(Cc1ccc(Oc2ccccc2)cc1)Cc1ccc(Cl)c(Cl)c1 (relative stereo)     inhibition at 1 µM        53

P: CC(C=CCCCN(Cc1ccccc1)C(=O)C1C(C(=O)O)C(C(=O)O)C1C(=O)O)CCCc1ccccc1 (stereo not drawn)
Q: COC(=O)[C@@H]1[C@@H](C(=O)O)[C@@H](C(=O)O)[C@@H]1C(=O)N[C@@H](C)[C@@H](Cc1ccc(Cl)c(Cl)c1)OC(=O)c1ccc2ccccc2c1
Q. // max by inhibition at 1 µM over [ P , Q ] Mark your answer with the label of the selected entry.
A. Q

P: CCCN(CCCC(OC(=O)c1ccc2ccccc2c1)C(C)Cc1ccccc1)C(=O)C1C(C(=O)O)C(C(=O)O)C1C(=O)O (stereo not drawn)
Q: C[C@H](NC(=O)[C@H]1[C@H](C(=O)O)[C@H](C(=O)O)[C@H]1C(=O)O)[C@@H](Cc1ccc(Cl)c(Cl)c1)OC(=O)c1ccc2ccccc2c1
Q. Dear colleague, could you let me know whether P or Q has the lower recorded inhibition at 1 µM? Thanks. Mark your answer with the label of the selected entry.
A. Q

Origin of measurements: patent US5831115A
